- SYSTEM_TESTED: alpha-synuclein fibrils, P37840
- TEST_PROTOCOL: SPR, captured mAb
- TEST_PARAMETERS: remark: other sources report otherwise
# label = yes if kon >= 10000 M⁻¹ s⁻¹ else no

Worked set:
ACI-7079-2506F3-Ab1 (antibody, V domains shown) VH: QVQLQQPGAELVKPGASVKLSCKASGYTFTTYWMQWVKQRPGQGLEWIGEIDPSDSYINYNQKFKGKATLTVDTSSSTAFMQLSSLTSEDSAVYYCARGMMDYWGQGTSVTVSS VL: DVLMTQTPLSLPVSLGDQASISCRSSQSIVHSNGNTYLEWYLQKPGQSPKLLIYKVSNRFSGVPDRFSGSGSGTDFTLKISRVEAEDLGVYYCFKGSHVPYTFGGGTKLEIK; yes
ACI-7067-1108H1-Ab1 (antibody, V domains shown) VH: EVKLVESGGGLVQPGGSMKLSCTASGFTFSDAWMNWVRQSPEKGLEWVAEIRNKAHNHATNYAESVKGRFTISGDDSKSSVYLQMNNLRAEDTGIYYCTIYSFWGQGTLVTVSA VL: SIVMTQTPKFLLVSAGDRVTITCKASQSVTNYVAWYHQKPGQSPKLLIYSASNRYSGVPDRFTGSGYGTDFTFTINTVQTEDLAVYFCQQDYRIPYTFGGGTKLEIK; yes
ACI-7067-1106A8-Ab2 (antibody, V domains shown) VH: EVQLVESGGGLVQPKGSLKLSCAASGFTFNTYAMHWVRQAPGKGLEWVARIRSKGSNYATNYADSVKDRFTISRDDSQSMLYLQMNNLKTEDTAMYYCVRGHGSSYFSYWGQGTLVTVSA VL: QIVLTQSPAIMSASPGEKVTMTCSASSSVSYMHWYQQKSGTSPKRWIYDTSNLASGVPARFSGSGSGTSYSLTISSMEAEDAATYYCQQWNSHPPTFGAGTKLELK; yes
ACI-8033-18C11-Ab1 (antibody, V domains shown) VH: QVQLQQPGAELVKPGASVKMSCKAAGYTFSSYWITWVRQRPGQGLDWIGDIYPGGGVTNYNEKFKTKATLTVDTSSSTAYMQLSSLTSEDSAVYYCATAQTTFAYWGQGTLVTVSA VL: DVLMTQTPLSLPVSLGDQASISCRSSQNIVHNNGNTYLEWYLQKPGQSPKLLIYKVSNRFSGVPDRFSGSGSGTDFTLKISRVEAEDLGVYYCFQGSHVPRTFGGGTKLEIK; no
ACI-7089-4418F6-Ab1 (antibody, V domains shown) VH: QVQLQQSGAELARPGASVKVSCKASGYTFTSSGISWLKHRTGQGLEWIGDIYPRSGNTYYNEKFKDKATLTADKSSSTAYMELRSLTSEDSAVYFCSSGNYWGQGTTLTVSS VL: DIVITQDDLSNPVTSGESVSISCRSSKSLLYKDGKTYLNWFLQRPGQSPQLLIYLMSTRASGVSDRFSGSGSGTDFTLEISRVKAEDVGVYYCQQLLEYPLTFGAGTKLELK; yes
ACI-8033-4F3-Ab1 (antibody, V domains shown) VH: EVQLQQSGPELVKPGASVKISCKASGYTFTDYYMNWVKQSHGKSLEWIGDINPNTGTNSYNQKFKGRASLTVDKFSSAAYMELRSLTSEDSAVYYCARTGYGDPISSYYYALDYWGQGTSVTVSS VL: DIVMSQSPSSLAVSAGEKVTMSCKSSQSLLNSRTRKNYLAWYQQKPGQSPKLLIYWASTRESGVPDRFTGSGSGTDFTLTISSVQAEDLAVYYCKQSYNLWTFGGGTKLEIK; no
ACI-7088-4305H7-Ab1 (antibody, V domains shown) VH: EVQLQQSGAELVRPGASVKLSCTASGFNIKDDYMHWVKQRPEQGLEWIGWIDPENGDTEYASKFQGKATMIADTSSNTAYLQLSSLTSEDTAVYYCKTWGTTQALFPYWGQGTLVTVSS VL: DIVMTQSQKFMSTSVGDRVSITCKASQNVGTAVGWYQQKAGQSPKLLIHSASNRYTGVPDRFTGSGSGTDFTLTINNMQSEDLADYFCQQYRSYPLTFGAGTKLELK; yes
ACI-7079-2506E2-Ab2 (antibody, V domains shown) VH: QVQLQQSGPELVRPGASVKISCKASGYAFSNSWMNWVKQRPGKGLEWIGRIFPGDGDTYYDGKFKGKVKLTTDKFSNTAYMQLRSLTSEDSAVYFCARWGGTNDEWFAHWGQGTLVTVSV VL: DIVLTQSPASLTVSLGQRATISCRASQSVSTSRNSYMHWYQQKPRQPPKLLIKYASNLESGVPARFSGSGSGADFTLNIHPVEEEDTATYYCQHSWDIPLTFGTGTKLELS; no
ACI-7079-2605B3-Ab2 (antibody, V domains shown) VH: EVQLVESGGGLVQPKGSLKLSCAASGFIFKTYAMHWVRQAPGKGLEWVARIRSKGGNYATYFADSVKDRFTISRDDSQNMLYLQVNNLKIEDTAMYFCVRGGNYSWFAYWGQGTLVTVSA VL: QIVLTQSPAIMSASPGEKVTMTCSASSSVTYMHWYQQKSGTSPKRWIYDTSQLASGVPARFSGSGSGTSHSLTISSMETEDAATYYCQQWTRNPPTFGGGTKLAIK; yes

Now, please, on to the next binder.
Does kon meet or surpass 10000 M⁻¹ s⁻¹ for ACI-7088-4303H6-Ab1 (antibody, V domains shown) VH: EVQLQQSGAELVRPGASVKLSCTASGFNIQDDYMHWVKQRPEQGLEWIGWIDPENGDTEYASKFQGKATLTADTSSNTAYLQLSRLTSEDTAVYYCTTAGSGVQLFDYWGQGTTLTVSA VL: DILMTQSQKFMSTSVGDRVSVTCKASQNVGTNVAWYQQKPGQSPKPLISSASSRYSGVPDRFTGSGSGTDFTLTISNVQSEDLADYFCQQYNRYPLTFGAGTKLELK ?
yes

From: patent US20250340623A1
